STUDY SYSTEM: UniProt:P55212
TEST SUMMARY: inhibition of CASP6 peptide cleavage – biochemical, VEID-R110 fluorescence, cherry-pick, dose response (AID 720632)
Active and inactive are the calls of the source.
OBSERVED PROPERTY: AC50

Solved entries (count: 3):
O=C1Cc2ccccc2C(=O)N1Cc1cccc(Cl)c1 ... 13 µM (active)
O=C(COC(=O)c1ccc([N+](=O)[O-])s1)NCCc1ccccc1 ... 11 µM (active)
O=C(COC(=O)c1ccc([N+](=O)[O-])o1)NC1CCS(=O)(=O)C1 (centres undefined) ... 39.7 µM (active)

// fetch UniProt:P55212 AC50 for "O=C(O)C1Oc2cc3ccccc3cc2O1" 8.44 µM (active)

---

STUDY SYSTEM: Induced myeloid leukemia cell differentiation protein Mcl-1 (Homo sapiens, UniProt Q07820)
Sequence (Q07820 whole entry): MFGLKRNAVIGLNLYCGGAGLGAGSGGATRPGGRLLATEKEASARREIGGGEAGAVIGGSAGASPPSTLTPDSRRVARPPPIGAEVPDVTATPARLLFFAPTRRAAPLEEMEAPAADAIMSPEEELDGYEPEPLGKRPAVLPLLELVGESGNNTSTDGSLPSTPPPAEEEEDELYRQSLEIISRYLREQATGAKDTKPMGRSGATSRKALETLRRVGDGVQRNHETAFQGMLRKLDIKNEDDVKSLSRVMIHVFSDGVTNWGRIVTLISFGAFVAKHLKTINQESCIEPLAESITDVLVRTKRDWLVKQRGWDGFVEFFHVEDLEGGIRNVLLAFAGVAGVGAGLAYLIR
Format: functional
Activity calls are given as the source filed them.
OBSERVED PROPERTY: IC50

Solved entries (count: 4):
COc1cnn(-c2ccccc2)c(=O)c1SCc1ccc(Cl)cc1Cl ... 1.26 µM (not active)
Cc1nn(Cc2ccc(F)cc2)c2sc(C(=O)Nc3ccc(N4CCOCC4)cc3N3CCOCC3)cc12 ... 2.73 µM (not active)
O=C(/C=C/c1cccs1)N1CCN(c2ccc(O)cc2)CC1 ... 5.63 µM (active)
CCOC(=O)c1ccc(N=Nc2c(O)nc(O)c(C#N)c2C)cc1 ... 3.18 µM (active)

Which IC50 is reported for this molecule? "COCC/N=c1\scc(-c2cccs2)n1/N=C/c1ccc(O)c(O)c1O" 5.17 µM (active)

---

IC50 listing for selected molecules.
STUDY SYSTEM: UniProt:Q9H0H5
Sequence (Q9H0H5 whole entry): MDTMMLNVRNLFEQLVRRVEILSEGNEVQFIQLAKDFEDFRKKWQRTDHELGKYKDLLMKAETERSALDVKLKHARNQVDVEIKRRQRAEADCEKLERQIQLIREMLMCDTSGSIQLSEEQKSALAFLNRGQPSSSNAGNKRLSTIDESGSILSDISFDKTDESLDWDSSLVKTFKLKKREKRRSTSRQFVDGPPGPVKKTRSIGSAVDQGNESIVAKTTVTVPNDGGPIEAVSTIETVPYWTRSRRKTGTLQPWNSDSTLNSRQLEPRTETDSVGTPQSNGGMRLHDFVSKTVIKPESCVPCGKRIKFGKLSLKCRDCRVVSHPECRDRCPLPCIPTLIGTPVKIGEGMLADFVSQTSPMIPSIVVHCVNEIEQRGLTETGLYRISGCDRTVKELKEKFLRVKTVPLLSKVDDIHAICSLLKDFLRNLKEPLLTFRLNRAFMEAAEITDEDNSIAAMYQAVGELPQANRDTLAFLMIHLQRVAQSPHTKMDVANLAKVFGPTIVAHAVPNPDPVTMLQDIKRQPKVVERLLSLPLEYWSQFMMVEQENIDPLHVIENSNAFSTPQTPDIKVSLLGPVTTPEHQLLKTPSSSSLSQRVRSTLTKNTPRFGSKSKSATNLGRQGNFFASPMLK
TEST SUMMARY: blockers of MgcRacGAP-driven Rac1 GTP hydrolysis – biochemical, ADP Hunter fluorescence, primary and confirmatory, confirmation (AID 624330)
Type: functional
Calls of active or inactive are those of the source.

CN(C)c1ccc(C(=O)NC2(N3CCC3=O)CCCC2)cc1 ... 126 µM (active)

Which IC50 is reported for this molecule? "Oc1ccc(Cc2ccc(Cl)cc2)c(O)c1" 69.5 µM (active)

Which IC50 is reported for this molecule? "N/N=C(\Cc1cscn1)c1ccc(O)cc1O" 53.3 µM (active)

Which IC50 is reported for this molecule? "COc1cccc(CNCc2ccco2)c1O" 117 µM (active)

---

STUDY SYSTEM: Cytochrome P450 2C19 (Homo sapiens, UniProt P33261)
Sequence (P33261 whole entry): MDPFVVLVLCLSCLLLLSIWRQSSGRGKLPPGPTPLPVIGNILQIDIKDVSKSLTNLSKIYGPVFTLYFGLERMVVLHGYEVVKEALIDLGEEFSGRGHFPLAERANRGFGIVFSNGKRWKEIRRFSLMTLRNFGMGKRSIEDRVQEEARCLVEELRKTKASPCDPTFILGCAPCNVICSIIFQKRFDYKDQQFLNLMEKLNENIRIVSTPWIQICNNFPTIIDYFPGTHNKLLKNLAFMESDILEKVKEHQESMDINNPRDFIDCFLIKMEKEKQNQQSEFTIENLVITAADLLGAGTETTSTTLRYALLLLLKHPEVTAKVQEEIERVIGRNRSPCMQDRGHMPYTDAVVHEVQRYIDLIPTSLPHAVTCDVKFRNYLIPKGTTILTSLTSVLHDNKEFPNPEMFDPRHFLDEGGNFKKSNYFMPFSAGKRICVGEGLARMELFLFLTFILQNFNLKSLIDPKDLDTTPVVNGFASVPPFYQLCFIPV
TEST SUMMARY: Cytochrome panel assay with activity outcomes. Panel member name: p450-cyp2c19 Compounds with AC50 equal or less than 10 uM are considered active
Type: functional
CONDITION DETAILS: read-out: AC50
AC50 listing for selected compounds.

O=C(O)[C@H]1CCCC[C@@H]1c1c2ccc(=O)c(O)c-2oc2c(O)c(O)ccc12 ... 2.51 µM (inconclusive)
Cc1nc(NC(N)=Nc2ccccc2)nc2ccccc12 ... 39.8 µM (inconclusive)
Brc1[nH]nc2ccccc12 ... 11.2 µM (inconclusive)
CCCN1C(=O)C(Cc2nc3ccccc3c(=O)n2C)c2ccccc21 (configuration not stated) ... 0.0562 µM (inconclusive)
CC(=O)c1ccc(NC(=O)C2CC(c3ccc(F)cc3)=NO2)cc1 (configuration not stated) ... 17.8 µM (inconclusive)
CCOc1ccc(C(=O)Nc2cccc(-c3nc4cccnc4o3)c2)cc1Cl ... 14.1 µM (inconclusive)

Proceed to the following item.
Which AC50 is reported for this compound? "NS(=O)(=O)c1ccc(/N=N\c2cccnc2O)cc1" 3.98 µM (inconclusive)

---

EC50 listing for selected molecules.
Test system: BJ
TEST SUMMARY: BJ-TERT-LT-ST fibroblast viability loss – cell-based, RAS-independent, luminescence, dose response (AID 1935);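 also: BJ fibroblasts immortalized with TERT plus LT and ST oncogenes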
Assay type: functional
CONDITION DETAILS: Homo sapiens
Activity calls are given as the source filed them.

Solved entries (count: 3):
Nc1nonc1-n1nnc(C(=O)N/N=C/c2cc(Cl)ccc2O)c1CN1CCCCCC1 ... > 75 µM (not active)
CC[n+]1c(/C=C/N(C)c2ccccc2)n(-c2ccccc2)c2ccc(-c3nc4ccccc4s3)cc21 ... 2.7 µM (inconclusive)
COc1ccc(Cl)cc1NC(=O)CN(C)CC(=O)Nc1ccccc1N1CCOCC1 ... 30.7 µM (active)

Which EC50 is reported for this molecule? "CCC1=Nc2cc(C(=O)O)ccc2Sc2ccc(Cl)cc21" > 150 µM (not active)

Which EC50 is reported for this molecule? "COc1ccc(OC)c(Nc2c3c(nc4ccccc24)CCC3)c1" 0.284 µM (inconclusive)

---

TEST SUMMARY: NIH3T3 cell viability loss – ATP luminescence, mouse fibroblasts, counter-screen, dose response (AID 2010);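 also: cells exposed to compound for about 90 hours before reading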
Assay type: functional, cell-based
Activity calls are given as the source filed them.
OBSERVED PROPERTY: EC50

Solved entries (count: 7):
Cc1ccc2[nH]c(C)c(/C=N/Nc3nc4ccccc4s3)c2c1 ... > 60 µM (inconclusive)
CN1CCN(c2ncnc3sc(-c4ccccc4)cc23)CC1 ... > 60 µM (not active)
Cc1cc(C)c2c3c(sc2n1)C(c1cccc(F)c1)C(C#N)=C(N)O3 (stereo not drawn) ... > 30 µM (not active)
Nc1nonc1-n1nnc(C(=O)N/N=C/c2cc(Cl)ccc2O)c1CN1CCCCCC1 ... 6.91 µM (active)
COc1ccc(/C=C/c2ccncc2)cc1 ... > 60 µM (not active)
O=C(N/N=C/c1ccc([N+](=O)[O-])s1)C(O)c1ccccc1 (stereo not drawn) ... > 60 µM (inconclusive)
CN(C)CCN(C(=O)c1ccc(S(=O)(=O)N(C)C)cc1)c1nc2cc3c(cc2s1)OCCO3 ... > 30 µM (not active)

Which EC50 is reported for this compound? "OC1CCN(Cc2cccc(Oc3ccccc3)c2)CC1" > 30 µM (not active)

---

TEST SUMMARY: microbe, parasite or virus in culture
Assay type: functional
CONDITION DETAILS: Mycobacterium tuberculosis
Structures can show the parent of a compound that is named as a salt. Active and inactive are the calls of the source.
CC50 listing for selected molecules.

Solved entries (count: 4):
CC[n+]1c(/C=C/N(C)c2ccccc2)n(-c2ccccc2)c2ccc(-c3nc4ccccc4s3)cc21 ... 3.06 µM (active)
COCC(=O)O[C@]1(CCN(C)CCCc2nc3ccccc3[nH]2)CCc2cc(F)ccc2[C@@H]1C(C)C ... 14.2 µM (active)
CC(C)Cc1ccc(C(C)C(=N)NCCc2ccccc2)cc1 (stereo not given) ... 12.1 µM (active)
O=C(NCc1ccccn1)C(=O)Nc1nc(C23CC4CC(CC(C4)C2)C3)cs1 ... 36 µM (active)

Proceed to the following item.
Which CC50 is reported for this molecule? COc1cccc2c1C(=O)c1c(O)c3c(c(O)c1C2=O)C[C@@](O)(C(=O)CO)C[C@@H]3O[C@H]1C[C@H](N)[C@@H](O)[C@H](C)O1 [EPIRUBICIN HYDROCHLORIDE] 18.7 µM (active)

---

TEST SUMMARY: Trypanosoma cruzi growth suppression in host cells – NIH3T3 host cells, beta-gal luminescence, confirmation (AID 2044);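 also: intracellular parasites grown in NIH/3T3 mouse fibroblasts as host cells; luminescent beta-galactosidase reporter signal from transgenic T. cruzi replicating inside host cells; inhibitors lower the luminescence signal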
Type: functional, cell-based
Active and inactive are the calls of the source.
EC50 listing for selected compounds.

Solved entries (count: 4):
CN1CCN(c2ncnc3sc(-c4ccccc4)cc23)CC1 ... 314 nM (active)
COc1ccc(CN(C(=O)c2ccc(-c3ccccc3)[nH]2)C(C(=O)NC(C)(C)C)c2ccncc2)cc1 (stereo not given) ... 706 nM (active)
CC1CCCC(C)N1S(=O)(=O)c1ccc(S(=O)(=O)NCCc2ccncc2)cc1 (stereo not given) ... 2830 nM (active)
CCOc1cccc2sc(N(CCCN(C)C)C(=O)c3ccc(S(=O)(=O)N(C)c4ccccc4)cc3)nc12 ... 1520 nM (active)

Which EC50 is reported for this compound? "CC(C)c1ccc2[nH]c(O)c(N=NC(=O)c3cccc(S(=O)(=O)N4CCCCC4)c3)c2c1" 580 nM (active)

---

STUDY SYSTEM: UniProt P07237
Sequence (P07237 whole entry): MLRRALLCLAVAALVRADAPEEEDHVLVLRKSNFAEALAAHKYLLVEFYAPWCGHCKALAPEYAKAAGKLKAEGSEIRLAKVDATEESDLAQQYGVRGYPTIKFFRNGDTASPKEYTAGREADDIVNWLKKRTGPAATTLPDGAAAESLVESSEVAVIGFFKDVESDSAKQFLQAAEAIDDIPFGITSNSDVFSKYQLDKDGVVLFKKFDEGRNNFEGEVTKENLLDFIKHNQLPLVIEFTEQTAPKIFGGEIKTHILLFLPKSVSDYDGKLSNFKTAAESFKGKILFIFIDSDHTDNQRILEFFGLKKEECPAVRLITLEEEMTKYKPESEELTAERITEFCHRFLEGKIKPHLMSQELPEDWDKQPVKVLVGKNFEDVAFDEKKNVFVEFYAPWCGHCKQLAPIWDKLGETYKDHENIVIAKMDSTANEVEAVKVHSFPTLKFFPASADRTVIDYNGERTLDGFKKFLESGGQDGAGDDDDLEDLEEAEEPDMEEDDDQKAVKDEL
TEST SUMMARY: inhibition of PDI-driven insulin aggregation – biochemical, turbidity, absorbance, cherry-picked samples, dose response (AID 602350)
Type: functional
Activity calls are given as the source filed them.
OBSERVED PROPERTY: AC50

Solved entries (count: 3):
COc1ccc2c(CC(=O)OCC(=O)N(C)c3c(N)n(Cc4ccccc4)c(=O)[nH]c3=O)coc2c1 ... 5.45 µM (active)
CCOC(=O)C1(CCOc2ccccc2)CCN(Cc2cc(OC)c(O)cc2Cl)CC1 ... 6.03 µM (active)
Cc1c(O)ccc2c(CN3CCN(C/C=C/c4ccccc4)CC3)cc(=O)oc12 ... 19.5 µM (active)

Proceed to the following item.
Which AC50 is reported for this molecule? Cc1cc(O)cc2c1C1CCC3(C)C(=O)CCC3C1C=C2 (centres undefined) 19.5 µM (active)
